# target: mouse TMEM16A mutant S517A (Mus musculus, UniProt Q8BHY3, S517A)
# Construct: expressed in transfected cells; host or cells: HEK293T
# experiment: Inside-out patch recording of 1PBC block, mutant S517A
# Type: cell-based
# details: S517A; V 0 mV
value_type: pIC50
Scale for pIC50: -log10 of concentration given in mol/L; no unit attached.

Exercise: pIC50 for N#Cc1c(C(F)(F)F)cc(O)n2c1nc1ccccc12 [1PBC] ?
Key: 5.31

====

# target: mouse TMEM16A mutant R515A (Mus musculus, UniProt Q8BHY3, R515A)
# Construct: expressed in transfected cells; host or cells: HEK293T
# experiment: Inside-out patch recording of 1PBC block, mutant R515A
# Format: cell-based
# details: R515A; V -120 mV
value_type: pIC50
Scale for pIC50: -log10 of concentration given in mol/L; no unit attached.

Exercise: pIC50 for `N#Cc1c(C(F)(F)F)cc(O)n2c1nc1ccccc12` ?
Key: 3.76

====

# target: mouse TMEM16A mutant I512A (Mus musculus, UniProt Q8BHY3, I512A)
# Construct: expressed in transfected cells; host or cells: HEK293T
# experiment: Inside-out patch recording of 1PBC block, mutant I512A
# Format: cell-based
# details: 20 mV; 2 µM Ca2+
value_type: pIC50
Scale for pIC50: -log10 of concentration given in mol/L; no unit attached.

Exercise: Can you look up pIC50 on mouse TMEM16A mutant I512A (Mus musculus, UniProt Q8BHY3, I512A) for `N#Cc1c(C(F)(F)F)cc(O)n2c1nc1ccccc12` ?
Key: 4.59

====

# target: mouse TMEM16A mutant S517A (Mus musculus, UniProt Q8BHY3, S517A)
# Construct: expressed in transfected cells; host or cells: HEK293T
# experiment: Inside-out patch recording of 1PBC block, mutant S517A
# Format: cell-based
# details: S517A; V 100 mV
value_type: IC50 (µM)
Quick reminder: number only, in µM, skip the unit.

Exercise: IC50 for `N#Cc1c(C(F)(F)F)cc(O)n2c1nc1ccccc12` ?
Key: 2.14

====

# target: mouse TMEM16A mutant I636A (Mus musculus, UniProt Q8BHY3, I636A)
# Construct: expressed in transfected cells; host or cells: HEK293T
# experiment: Inside-out patch recording of 1PBC block, mutant I636A
# Type: cell-based
# details: 0 mV; 15 µM Ca2+
value_type: pIC50
Scale for pIC50: -log10 of concentration given in mol/L; no unit attached.

Exercise: pIC50 for `N#Cc1c(C(F)(F)F)cc(O)n2c1nc1ccccc12` ?
Key: 5.17

====

# target: mouse TMEM16A mutant Q637A (Mus musculus, UniProt Q8BHY3, Q637A)
# Construct: expressed in transfected cells; host or cells: HEK293T
# experiment: Inside-out patch recording of 1PBC block, mutant Q637A
# Assay type: cell-based
# details: -100 mV; 2 µM Ca2+
value_type: IC50 (µM)
Quick reminder: number only, in µM, skip the unit.

Exercise: IC50 for `N#Cc1c(C(F)(F)F)cc(O)n2c1nc1ccccc12` ?
Key: 6.66

====

# target: mouse TMEM16A mutant V543A (Mus musculus, UniProt Q8BHY3, V543A)
# Construct: expressed in transfected cells; host or cells: HEK293T
# Sequence (Q8BHY3 1-960 V543A): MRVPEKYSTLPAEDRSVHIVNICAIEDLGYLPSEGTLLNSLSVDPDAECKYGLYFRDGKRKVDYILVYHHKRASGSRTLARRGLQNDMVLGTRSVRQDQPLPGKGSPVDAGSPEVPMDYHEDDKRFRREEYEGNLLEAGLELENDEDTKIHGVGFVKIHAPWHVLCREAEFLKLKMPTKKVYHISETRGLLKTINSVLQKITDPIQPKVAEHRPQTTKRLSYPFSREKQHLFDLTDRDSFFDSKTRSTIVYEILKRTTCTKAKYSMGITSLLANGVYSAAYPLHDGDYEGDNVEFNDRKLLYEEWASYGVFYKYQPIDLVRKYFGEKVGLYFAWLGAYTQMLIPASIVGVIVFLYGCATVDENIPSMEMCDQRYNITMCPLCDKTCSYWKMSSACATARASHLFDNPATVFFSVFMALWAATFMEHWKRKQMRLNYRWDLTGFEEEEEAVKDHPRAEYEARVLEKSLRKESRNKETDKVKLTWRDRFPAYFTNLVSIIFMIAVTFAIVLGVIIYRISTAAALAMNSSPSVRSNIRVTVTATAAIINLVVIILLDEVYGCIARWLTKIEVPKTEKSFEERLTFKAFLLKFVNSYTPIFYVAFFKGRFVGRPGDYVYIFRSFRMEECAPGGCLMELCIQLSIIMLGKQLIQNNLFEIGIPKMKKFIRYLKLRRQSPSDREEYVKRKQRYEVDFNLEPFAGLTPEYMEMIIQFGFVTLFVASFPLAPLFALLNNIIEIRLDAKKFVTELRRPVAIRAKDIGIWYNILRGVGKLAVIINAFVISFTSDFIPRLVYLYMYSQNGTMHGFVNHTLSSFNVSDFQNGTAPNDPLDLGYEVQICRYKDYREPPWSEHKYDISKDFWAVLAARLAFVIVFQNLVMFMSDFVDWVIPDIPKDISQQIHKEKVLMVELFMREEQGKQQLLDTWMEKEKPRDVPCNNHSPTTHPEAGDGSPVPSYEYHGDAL
# experiment: Inside-out patch recording of 1PBC block, mutant V543A
# Assay type: cell-based
# details: -40 mV; 15 µM Ca2+
value_type: pIC50
Scale for pIC50: -log10 of concentration given in mol/L; no unit attached.

Exercise: Can you look up pIC50 on mouse TMEM16A mutant V543A (Mus musculus, UniProt Q8BHY3, V543A) for `N#Cc1c(C(F)(F)F)cc(O)n2c1nc1ccccc12` ?
Key: 4.81

====

# target: mouse TMEM16A mutant T518A (Mus musculus, UniProt Q8BHY3, T518A)
# Construct: expressed in transfected cells; host or cells: HEK293T
# Sequence (Q8BHY3 1-960 T518A): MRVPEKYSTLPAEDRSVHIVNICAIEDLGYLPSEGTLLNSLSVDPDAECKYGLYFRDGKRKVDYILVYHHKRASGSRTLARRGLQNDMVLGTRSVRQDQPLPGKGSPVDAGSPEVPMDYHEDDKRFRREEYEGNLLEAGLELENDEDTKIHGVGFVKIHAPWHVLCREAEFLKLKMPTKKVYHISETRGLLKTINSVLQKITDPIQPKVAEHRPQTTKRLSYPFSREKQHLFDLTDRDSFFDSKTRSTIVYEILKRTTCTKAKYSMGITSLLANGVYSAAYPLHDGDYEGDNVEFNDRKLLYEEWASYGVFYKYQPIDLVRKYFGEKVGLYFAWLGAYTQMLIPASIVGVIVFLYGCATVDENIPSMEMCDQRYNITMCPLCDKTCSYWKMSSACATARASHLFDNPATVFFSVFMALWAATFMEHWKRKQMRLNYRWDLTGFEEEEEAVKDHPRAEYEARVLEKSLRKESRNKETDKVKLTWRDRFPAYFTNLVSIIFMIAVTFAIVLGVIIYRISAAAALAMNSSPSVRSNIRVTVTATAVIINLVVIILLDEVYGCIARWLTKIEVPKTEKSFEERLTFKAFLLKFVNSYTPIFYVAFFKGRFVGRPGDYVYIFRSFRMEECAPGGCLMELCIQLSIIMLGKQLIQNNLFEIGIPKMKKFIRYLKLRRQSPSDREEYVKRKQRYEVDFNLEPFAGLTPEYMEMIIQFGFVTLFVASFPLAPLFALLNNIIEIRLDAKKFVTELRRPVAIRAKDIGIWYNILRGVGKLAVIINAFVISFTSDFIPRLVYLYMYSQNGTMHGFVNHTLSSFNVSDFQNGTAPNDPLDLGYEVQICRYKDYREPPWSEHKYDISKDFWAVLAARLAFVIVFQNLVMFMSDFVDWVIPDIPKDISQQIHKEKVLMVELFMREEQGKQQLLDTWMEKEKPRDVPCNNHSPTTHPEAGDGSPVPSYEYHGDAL
# experiment: Inside-out patch recording of 1PBC block, mutant T518A
# Format: cell-based
# details: -80 mV; 2 µM Ca2+
value_type: IC50
Reply with the number, then its unit.

Exercise: IC50 for N#Cc1c(C(F)(F)F)cc(O)n2c1nc1ccccc12 [1PBC] ?
Key: 14.7 µM

====

# target: mouse TMEM16A mutant V511A (Mus musculus, UniProt Q8BHY3, V511A)
# Construct: expressed in transfected cells; host or cells: HEK293T
# experiment: Inside-out patch recording of 1PBC block, mutant V511A
# Assay type: cell-based
# details: -120 mV; 2 µM Ca2+
value_type: pIC50
Scale for pIC50: -log10 of concentration given in mol/L; no unit attached.

Exercise: Can you look up pIC50 on mouse TMEM16A mutant V511A (Mus musculus, UniProt Q8BHY3, V511A) for N#Cc1c(C(F)(F)F)cc(O)n2c1nc1ccccc12 [1PBC] ?
Key: 4.14
